# test.target: UniProtKB Q38C42
# Sequence (Q38C42 1-471): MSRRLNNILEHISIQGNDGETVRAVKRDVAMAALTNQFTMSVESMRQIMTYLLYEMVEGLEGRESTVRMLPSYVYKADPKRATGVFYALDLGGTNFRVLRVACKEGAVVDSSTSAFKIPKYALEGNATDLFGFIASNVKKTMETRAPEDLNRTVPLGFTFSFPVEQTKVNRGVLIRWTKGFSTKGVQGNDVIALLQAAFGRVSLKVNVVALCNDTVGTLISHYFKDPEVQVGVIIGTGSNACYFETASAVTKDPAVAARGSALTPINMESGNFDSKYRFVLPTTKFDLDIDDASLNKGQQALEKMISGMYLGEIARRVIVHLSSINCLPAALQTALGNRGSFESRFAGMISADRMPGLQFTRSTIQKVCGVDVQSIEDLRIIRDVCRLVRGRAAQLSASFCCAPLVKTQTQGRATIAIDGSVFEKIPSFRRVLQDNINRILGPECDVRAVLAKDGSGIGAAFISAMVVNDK
# condition.summary: read-out: TbHK1 IC50; inhibitor
experimental.readout: IC50

# compound.structure, result
rows = [
    ("CC(C)(C)c1ccc(C(=O)Nc2cc(Cl)c(-c3ccc(OC(F)(F)F)cc3)cc2C(=O)O)cc1", "> 10 µM"),
    ("CC(C)(C)c1ccc(C(=O)Nc2cc(Cl)c(-c3ccc(C(=O)O)cc3)cc2C(=O)O)cc1", "3.5 µM"),
    ("CC(C)(C)c1ccc(C(=O)Nc2cc(Cl)c(-c3ccc(C(F)(F)F)cc3)cc2C(=O)O)cc1", "> 10 µM"),
    ("CC(C)(C)c1ccc(C(=O)Nc2cc(Cl)c(-c3cccc([N+](=O)[O-])c3)cc2C(=O)O)cc1", "> 10 µM"),
]
